Target: DDE
Experiment: direct binding fluorescence polarization: CF5-labeled peptide titrated with DDE; n = 2
Bridge positions count the residues as written; N and C are the ends. Square brackets hold non-standard residues; d marks the D form. Phe(4-F) = N[C@@H](Cc1ccc(F)cc1)C(=O)O; Cha = N[C@@H](CC1CCCCC1)C(=O)O; CF5 = 5-carboxyfluorescein
Readout: Kd (nM)

>  <Binder>
Ac-RWQPCPAESWT[Cha]CWDPGGGK(CF5)-NH2 (disulfide 5-13) [Seq050-CF5]

>  <Kd, nM>
80

$$$$

P: Ac-RGWQPCPAESWT[Cha]CWDPGGGK(CF5)-NH2 (disulfide 6-14) [Seq053-CF5]
Q: Ac-WQPCPWESWT[Phe(4-F)]CWDPGGGK(CF5)-NH2 (disulfide 4-12) [Seq019-CF5]
# input Larger number for Kd: P , or Q ? Identify your pick by its label.
# output Q
